Target: T1, AFP158/HLA-A*02:01 complex (human)
T1 construct: flowed over the chip in SPR; also called AFP158 pro
Experiment: SPR, KD ratio to AS170036 VL1VH1;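 note: crude scFv captured on a sensor chip, peptide–HLA complex passed over at several concentrations, association then buffer dissociation, KD derived from on- and off-rates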
parameter: Affinity increase (fold)
Just the number in fold, nothing appended.

Q: Supply Affinity increase value. Item: LY34H (scFv, AS170036 VL1VH1 scFv mutein) scFv: QSALTQPRSVSGSPGQSVTISCAGTSSDVGSENHVSWYQQHPGKAPKLMIYQVNKRASGVPDRFSGSKSGNTASLTISGLQAEDEADYYCASYRSSDHNIVFGGGTKLTVLGGGGSGGGGSGGGGSEVQLVESGGGLVQPGGSLRLSCAASGFTFSSYAMSWVRQAPGKGLEWVSTINSGTGSPYYADSVKGRFTISRDNSKNTLYLQMNSLRAEDTAVYYCAKNFFDGSWFLGPPAMDYWGQGTLVTVSSHHHHHH
Result: 0.5

Q: Supply Affinity increase value. Item: LD97N (scFv, AS170036 VL1VH1 scFv mutein) scFv: QSALTQPRSVSGSPGQSVTISCAGTSSDVGSENYVSWYQQHPGKAPKLMIYQVNKRASGVPDRFSGSKSGNTASLTISGLQAEDEADYYCASYRSSNHNIVFGGGTKLTVLGGGGSGGGGSGGGGSEVQLVESGGGLVQPGGSLRLSCAASGFTFSSYAMSWVRQAPGKGLEWVSTINSGTGSPYYADSVKGRFTISRDNSKNTLYLQMNSLRAEDTAVYYCAKNFFDGSWFLGPPAMDYWGQGTLVTVSSHHHHHH
Result: 1

Q: Supply Affinity increase value. Item: LY93F (scFv, AS170036 VL1VH1 scFv mutein) scFv: QSALTQPRSVSGSPGQSVTISCAGTSSDVGSENYVSWYQQHPGKAPKLMIYQVNKRASGVPDRFSGSKSGNTASLTISGLQAEDEADYYCASFRSSDHNIVFGGGTKLTVLGGGGSGGGGSGGGGSEVQLVESGGGLVQPGGSLRLSCAASGFTFSSYAMSWVRQAPGKGLEWVSTINSGTGSPYYADSVKGRFTISRDNSKNTLYLQMNSLRAEDTAVYYCAKNFFDGSWFLGPPAMDYWGQGTLVTVSSHHHHHH
Result: 1.8

Q: Supply Affinity increase value. Item: LH98A (scFv, AS170036 VL1VH1 scFv mutein; also called AS170036 VL1VH1-VLH98A) scFv: QSALTQPRSVSGSPGQSVTISCAGTSSDVGSENYVSWYQQHPGKAPKLMIYQVNKRASGVPDRFSGSKSGNTASLTISGLQAEDEADYYCASYRSSDANIVFGGGTKLTVLGGGGSGGGGSGGGGSEVQLVESGGGLVQPGGSLRLSCAASGFTFSSYAMSWVRQAPGKGLEWVSTINSGTGSPYYADSVKGRFTISRDNSKNTLYLQMNSLRAEDTAVYYCAKNFFDGSWFLGPPAMDYWGQGTLVTVSSHHHHHH
Result: 2.3

Q: Supply Affinity increase value. Item: LD97A (scFv, AS170036 VL1VH1 scFv mutein) scFv: QSALTQPRSVSGSPGQSVTISCAGTSSDVGSENYVSWYQQHPGKAPKLMIYQVNKRASGVPDRFSGSKSGNTASLTISGLQAEDEADYYCASYRSSAHNIVFGGGTKLTVLGGGGSGGGGSGGGGSEVQLVESGGGLVQPGGSLRLSCAASGFTFSSYAMSWVRQAPGKGLEWVSTINSGTGSPYYADSVKGRFTISRDNSKNTLYLQMNSLRAEDTAVYYCAKNFFDGSWFLGPPAMDYWGQGTLVTVSSHHHHHH
Result: 0.5

Q: Supply Affinity increase value. Item: LH98S (scFv, AS170036 VL1VH1 scFv mutein) scFv: QSALTQPRSVSGSPGQSVTISCAGTSSDVGSENYVSWYQQHPGKAPKLMIYQVNKRASGVPDRFSGSKSGNTASLTISGLQAEDEADYYCASYRSSDSNIVFGGGTKLTVLGGGGSGGGGSGGGGSEVQLVESGGGLVQPGGSLRLSCAASGFTFSSYAMSWVRQAPGKGLEWVSTINSGTGSPYYADSVKGRFTISRDNSKNTLYLQMNSLRAEDTAVYYCAKNFFDGSWFLGPPAMDYWGQGTLVTVSSHHHHHH
Result: 1.4

Q: Supply Affinity increase value. Item: LY34W (scFv, AS170036 VL1VH1 scFv mutein) scFv: QSALTQPRSVSGSPGQSVTISCAGTSSDVGSENWVSWYQQHPGKAPKLMIYQVNKRASGVPDRFSGSKSGNTASLTISGLQAEDEADYYCASYRSSDHNIVFGGGTKLTVLGGGGSGGGGSGGGGSEVQLVESGGGLVQPGGSLRLSCAASGFTFSSYAMSWVRQAPGKGLEWVSTINSGTGSPYYADSVKGRFTISRDNSKNTLYLQMNSLRAEDTAVYYCAKNFFDGSWFLGPPAMDYWGQGTLVTVSSHHHHHH
Result: 0.6

Q: Supply Affinity increase value. Item: LH98M (scFv, AS170036 VL1VH1 scFv mutein) scFv: QSALTQPRSVSGSPGQSVTISCAGTSSDVGSENYVSWYQQHPGKAPKLMIYQVNKRASGVPDRFSGSKSGNTASLTISGLQAEDEADYYCASYRSSDMNIVFGGGTKLTVLGGGGSGGGGSGGGGSEVQLVESGGGLVQPGGSLRLSCAASGFTFSSYAMSWVRQAPGKGLEWVSTINSGTGSPYYADSVKGRFTISRDNSKNTLYLQMNSLRAEDTAVYYCAKNFFDGSWFLGPPAMDYWGQGTLVTVSSHHHHHH
Result: 1.8

Q: Supply Affinity increase value. Item: LD97T (scFv, AS170036 VL1VH1 scFv mutein) scFv: QSALTQPRSVSGSPGQSVTISCAGTSSDVGSENYVSWYQQHPGKAPKLMIYQVNKRASGVPDRFSGSKSGNTASLTISGLQAEDEADYYCASYRSSTHNIVFGGGTKLTVLGGGGSGGGGSGGGGSEVQLVESGGGLVQPGGSLRLSCAASGFTFSSYAMSWVRQAPGKGLEWVSTINSGTGSPYYADSVKGRFTISRDNSKNTLYLQMNSLRAEDTAVYYCAKNFFDGSWFLGPPAMDYWGQGTLVTVSSHHHHHH
Result: 0.7

Every entry's value here was drawn from patent US20240279318A1.
